The reported numbers originate from paper PMC6956230.

MEASUREMENT TARGET: AtSgpp (MBP-AtSgpp) (Arabidopsis thaliana)
Construct: gene SGPP; full-length coding region (735 bp EcoRI/SalI fragment) in pMAL-c2x; N-terminal MBP fusion kept, vector residues Ile-Ser-Glu-Phe before Met1; expressed in E. coli TB1 with pSBETa; amylose resin
Sequence (Q9ZVJ5 1-244): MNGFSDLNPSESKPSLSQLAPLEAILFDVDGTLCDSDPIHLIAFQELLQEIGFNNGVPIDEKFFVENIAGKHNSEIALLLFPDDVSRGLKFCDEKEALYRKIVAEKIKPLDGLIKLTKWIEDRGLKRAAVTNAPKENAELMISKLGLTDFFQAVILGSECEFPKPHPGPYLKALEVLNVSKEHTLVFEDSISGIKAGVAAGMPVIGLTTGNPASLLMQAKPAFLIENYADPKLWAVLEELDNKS
PROCEDURE DETAILS: phosphate release, molybdate/ascorbic acid assay, Lineweaver-Burk
Assay type: biochemical
APPLIED CONDITIONS: 20 mM Tris-HCl pH 7.0, 5 mM MgCl2, 32 °C, MBP fusion, brackets: 95% CI and [SD]
This section presents compounds with their documented apparent Km values.

Sample records with apparent Km:
COMPOUND	MEASUREMENT TARGET	apparent Km
O=P(O)(O)OC[C@H]1OC(O)[C@H](O)[C@@H]1O (stereo partly drawn) [D-ribose-5-phosphate]	AtSgpp (MBP-AtSgpp) (Arabidopsis thaliana)	3.6 (3.5–3.7) × 10^−3 [0.1] M
O=P(O)(O)OC[C@H]1OC(O)C[C@@H](O)[C@@H]1O (stereo partly drawn) [2-deoxy-D-glucose-6-phosphate]	AtSgpp (MBP-AtSgpp) (Arabidopsis thaliana)	4.6 (4–5.2) × 10^−3 [0.5] M
O=P(O)(O)OC[C@H]1OC(O)[C@@H](O)[C@@H](O)[C@@H]1O (stereo partly drawn) [D-mannose-6-phosphate]	AtSgpp (MBP-AtSgpp) (Arabidopsis thaliana)	4.9 (4.2–5.6) × 10^−3 [0.6] M
O=P(O)(O)OC[C@H]1OC(O)[C@H](O)[C@@H](O)[C@@H]1O (stereo partly drawn) [D-glucose-6-phosphate]	AtSgpp (MBP-AtSgpp) (Arabidopsis thaliana)	7.1 (6.8–7.4) × 10^−3 [0.3] M
O=P(O)(O)OCC(O)CO (racemic) [DL-glycerol-3-phosphate]	AtSgpp (MBP-AtSgpp) (Arabidopsis thaliana)	7.3 (7.1–7.5) × 10^−3 [0.2] M

Query compound follows.
Q. Output apparent Km of O=P(O)(O)OC[C@H]1OC(O)(CO)[C@@H](O)[C@@H]1O (stereo partly drawn) [D-fructose-6-phosphate]
A. 7.7 (7.3–8.1) × 10^−3 [0.4] M

====

MEASUREMENT TARGET: AtSgpp (MBP-AtSgpp) (Arabidopsis thaliana, UniProt Q9ZVJ5, DEL53-55)
Construct: gene SGPP; full-length coding region (735 bp EcoRI/SalI fragment) in pMAL-c2x; N-terminal MBP fusion kept, vector residues Ile-Ser-Glu-Phe before Met1; expressed in E. coli TB1 with pSBETa; amylose resin
PROCEDURE DETAILS: phosphate release, molybdate/ascorbic acid assay, Lineweaver-Burk
Type: biochemical
APPLIED CONDITIONS: 20 mM Tris-HCl pH 7.0, 5 mM MgCl2, 32 °C, MBP fusion, brackets: 95% CI and [SD]
MEASURE NAME: apparent Km

Some entries whose results are on file:
COMPOUND	apparent Km
O=P(O)(O)OCC(O)CO (racemic) [DL-glycerol-3-phosphate]	14 (13.7–14.3) × 10^−3 [0.3] M
O=P(O)(O)OC[C@H]1OC(O)[C@H](O)[C@@H]1O (stereo partly drawn) [D-ribose-5-phosphate]	3.7 (3.5–3.9) × 10^−3 [0.2] M
O=P(O)(O)OC[C@H]1OC(O)[C@@H](O)[C@@H](O)[C@@H]1O (stereo partly drawn) [D-mannose-6-phosphate]	6.7 (6.6–6.8) × 10^−3 [0.1] M

Q. Please report the measured apparent Km for O=P(O)(O)OC[C@H]1OC(O)[C@H](O)[C@@H](O)[C@@H]1O (stereo partly drawn) [D-glucose-6-phosphate]
A. 8.3 (8–8.6) × 10^−3 [0.3] M

Q. Give a short answer stating reported apparent Km for O=P(O)(O)OC[C@H]1OC(O)C[C@@H](O)[C@@H]1O (stereo partly drawn) [2-deoxy-D-glucose-6-phosphate] .
A. 4.7 (4.5–4.9) × 10^−3 [0.2] M

Q. Supply measured apparent Km of O=P(O)(O)OC[C@H]1OC(O)(CO)[C@@H](O)[C@@H]1O (stereo partly drawn) [D-fructose-6-phosphate] in your reply.
A. 10 (9.5–10.5) × 10^−3 [0.4] M
